assay: yeast display, Sf9 membrane polyspecificity reagent, FACS + sequencing; frameworks hold sequencing errors
observation_type: polyreactivity (PSR sort gate)

Reference set (4 entries):
QVQLVESGGGLVQAGGSLRLSCAASGGTFLYYMGWYRQSPGKERELVAAITFSGGSTYYADSVKGRFTISRDNAKNTVYLQMNSLKPEDTAVYYCAAGWYDWPKYLLSVYTYYLYDSWGQGTQVTVSS low polyreactivity
QVQLVESWGGLVQAGGSLRLSCAASGINFWVYAMGWYRQAPGQERELVAAISRRGGSTSYADSVKGRFTISRDNAKNTVYLQMKSLKPEDTAVYFCAATTYTHPYGYWGQGTQVTVSS high polyreactivity
QVQLVESGRGLLQAGGSLRISCAASGFTFKGNAMGWYRQAPGKESELVAAITTSGGSTYYADSVKWRFTISRDNAKNTVYLQMNSLKPEDTAVYYCNAYFIYEGGWYYNAQYDYWGQGTQVTVSS low polyreactivity
QVQLVESGGGLVQAGGSLRLSCAASGSIFALYAMGWYRQAPGKERELVAAISYRGGRTYYADSVKGRFTISRDNAKNTVYLQMNSLKPEDTAVYFCATDFPGKFDYWGQGTQVTVSS low polyreactivity

Continue with the sequence presented below.
Ask | Consider the sequence shown here: QFQLVDSGGGLVQAGGSLRLSCAASGSTFGYYAMGWYRQATGKERELVAAISWRGGSTSYADSVKGRFTISRDNAKNTVYLQMNSLIPEDTAVYLCAAGGDINKYGRQYRYDYWGQGTQVTVSS What is its recorded polyreactivity (PSR sort gate)?
Reply | high polyreactivity

* * *

test: yeast display, Sf9 membrane polyspecificity reagent, FACS + sequencing; frameworks hold sequencing errors
observation_type: polyreactivity (PSR sort gate)

QVQLVESGGGLVQAGGSLRLSCAASGRIITYNAMGWYRQAPGKERELVAAISTTGGRTYYADSVKGRFTISRDNAKNTVYLQMNSLKPEDTAVYYCNAVLKRPLAYHVTYDYWGQGTQVTVSA high polyreactivity
QVQLEESGGGLVQAGGSLRLSCAASGGIFWYNAMGWYRQAPGKERELVADISSSGITYYADSVKGRFTISRDNAKNTVYLQMNSLKPEDTAVYYCAADSTTRPGLRVYDDYDYWGQGTQVTVSS low polyreactivity
QVQLVESGGGLVKAGGSLRLSCAASGYNFIVYTMGWYRQAPGKERELVAAISSGGITDYADSVKGRFTISRDNAKNTDYLQMNSLNPEDTAVYYWGQGTQVTVSS low polyreactivity
QVQLVESGGGLVQAGGSLRLSCAASGSIFAPNAMGWYRQAPGKEREFVAGITQSGTSTYADSVKGRFTISRDNAKNTVYLQMNSLKPEDTAVYYCAAEYYYGYWYGYIISYDYWGQGTQVTVSS high polyreactivity

Ask | Consider the sequence shown here: QVQLVESGGGLVQAGGSLRLSCAASGIYPYYAMGWYRQAPGKERELVATISSADGPKYADSVKGRFTISRDNAKNTVYLQMNSLKPEDTAVYYCNAYVWSWHDYWGQGTQVTVSS What is its recorded polyreactivity (PSR sort gate)?
Reply | low polyreactivity

* * *

test: yeast display, Sf9 membrane polyspecificity reagent, FACS + sequencing; frameworks hold sequencing errors
observation_type: polyreactivity (PSR sort gate)

QVQLVESGGGLVQAGGSLRLSCAASGSTFSLYAMGWYRQAPGKERELVADINSGGGTYYADSVKGRFTISRDNAKNTVYLQMNSLKPEDTAVYYCTAASSWSYFWYDYWGQGTQVTVSS high polyreactivity
QVQLVESGGGLVQAGGSLRLSCAASGRTLYWYAMGWYRQAPGKERQLVAVISGSGASTYYADSVKGRFTISRDNAKNTVYLQMNSLKPEDTAVYYCNARDYRRYGRYHWQDYDYWGQGTQVTVSS high polyreactivity
